Quick reference for CC50 among some compounds
# Tested on: HeLa
# Test Name: Cytotoxicity against human HeLa cells assessed as reduction in cell viability incubated for 72 hrs measured by crystal violet based micro plate reader method
# Reported Conditions: hela, 72 h
Measure Name: CC50 (µM)

>  <Smiles String>
Cc1cc(-c2noc(C(F)(F)F)n2)cc(C)c1OCCCc1cc(C(=O)OC(C)C)no1

>  <Value Comparator>
=

>  <Measured>
17.9

$$$$
>  <Smiles String>
CN(C)C(=O)c1cc(CCCOc2ccc(-c3noc(C(F)(F)F)n3)cc2N)on1

>  <Value Comparator>
=

>  <Measured>
90.8

$$$$
>  <Smiles String>
COc1cc(-c2noc(C(F)(F)F)n2)cc([N+](=O)[O-])c1OCCCc1cc(C(=O)N(C)C)no1

>  <Value Comparator>
=

>  <Measured>
25.6

$$$$
>  <Smiles String>
CCOC(=O)c1cc(CCCOc2ccc(-c3noc(C(F)(F)F)n3)cc2N)on1

>  <Value Comparator>
>

>  <Measured>
100

$$$$
>  <Smiles String>
CCOC(=O)c1cc(CCCOc2ccc(-c3noc(C(F)(F)F)n3)cc2-n2cccc2)on1

>  <Value Comparator>
=

>  <Measured>
57.3

$$$$

###

Quick reference for pIC50 among some compounds
# System: rhinovirus A2
# Test Name: Antiviral activity against Rhinovirus A2 infected in human HeLa cell line assessed as inhibition of virus-induced cytopathic effect measured after 72 hrs by crystal violet uptake assay
# Type: functional, organism-based
# Reported Conditions: Rhinovirus A, HeLa, 72 h; read-out: IC50
pIC50: −log10 of the molar value.

>  <Smiles String>
CCOC(=O)c1cc(CCCOc2ccc(-c3noc(C(F)(F)F)n3)cc2OC)on1

>  <pIC50>
4.22

$$$$
>  <Smiles String>
CN(C)C(=O)c1cc(CCCOc2ccc(-c3noc(C(F)(F)F)n3)cc2N)on1

>  <pIC50>
4.74

$$$$
>  <Smiles String>
Cc1cc(-c2noc(C(F)(F)F)n2)cc(C)c1OCCCc1cc(C(=O)N(C)C)no1

>  <pIC50>
6.92

$$$$
>  <Smiles String>
COc1ccc(-c2cc(CCCOc3c(C)cc(-c4noc(C(F)(F)F)n4)cc3C)on2)cc1OC

>  <pIC50>
5.68

$$$$

###

Quick reference for log10 IC50 among some molecules
# Test system: Coxsackievirus B3
# Test Name: Antiviral activity against wild type Coxsackievirus B3 97927 infected in human HeLa cell line assessed as inhibition of virus-induced cytopathic effect measured after 48 hrs by crystal violet uptake assay
# Type: functional, organism-based
# Reported Conditions: Enterovirus B, 97927, HeLa, 48 h; read-out: IC50
Measure Name: log10 IC50 (log10 of the value in nM)

>  <Smiles String>
CN(C)C(=O)c1cc(CCCOc2ccc(-c3noc(C(F)(F)F)n3)cn2)on1

>  <log10 IC50>
3.77

$$$$
>  <Smiles String>
CC(=O)Nc1cc(-c2noc(C(F)(F)F)n2)ccc1OCCCc1cc(C(=O)N(C)C)no1

>  <log10 IC50>
4.48

$$$$
>  <Smiles String>
Cc1cc(-c2noc(C(F)(F)F)n2)cc(C)c1OCCCc1cc(C(=O)NCc2ccccc2)no1

>  <log10 IC50>
3.14

$$$$
>  <Smiles String>
COc1cc(-c2noc(C(F)(F)F)n2)ccc1OCCCc1cc(C(=O)N(C)C)no1

>  <log10 IC50>
1.48

$$$$
>  <Smiles String>
CCOC(=O)c1cc(CCCOc2ccc(-c3noc(C(F)(F)F)n3)cn2)on1

>  <log10 IC50>
4.01

$$$$
>  <Smiles String>
CCOC(=O)c1cc(CCCOc2c(OC)cc(-c3noc(C(F)(F)F)n3)cc2[N+](=O)[O-])on1

>  <log10 IC50>
3.08

$$$$
>  <Smiles String>
CCOC(=O)c1cc(CCCOc2ccc(-c3noc(C(F)(F)F)n3)cc2N)on1

>  <log10 IC50>
4.30

$$$$
>  <Smiles String>
CCOC(=O)c1cc(CCCOc2ccc(-c3noc(C(F)(F)F)n3)cc2)on1

>  <log10 IC50>
2.87

$$$$
>  <Smiles String>
COC(=O)c1cc(CCCOc2c(C)cc(-c3noc(C(F)(F)F)n3)cc2C)on1

>  <log10 IC50>
1.78

$$$$

Origin of values: ChEMBL document CHEMBL4765245
